Each record here notes measured EC50.
Test system: HBV viral production from HepAD38 cells
Method: Activity of test compounds on viral production from HepAD38 cells (viral load by qPCR of HBV core sequence in supernatant)
Assay type: cell-based
Stated conditions: Hepatitis B virus, 120 h, 5 days incubation, HBV DNA in supernatant by qPCR, top concentration 10 μM, read-out: Viral Load EC50 Activity range

Compound	Assayed target	EC50
CC(C)(C)OCCN1[C@H](C(=O)Nc2ccc(F)c(Cl)c2)C[C@H](c2nccs2)NS1(=O)=O [HBV-CSU-071-ISO-I]	HBV viral production from HepAD38 cells	< 1 µM
CN(C)CCCOc1ccc([C@@H]2C[C@H](C(=O)Nc3ccc(F)c(Cl)c3)N(C)S(=O)(=O)N2)cc1 [HBV-CSU-208-ISO-I]	HBV viral production from HepAD38 cells	> 5 µM
C#CCCN1C(C(=O)Nc2ccc(F)c(Cl)c2)CC(c2nccs2)NS1(=O)=O (stereo not drawn) [HBV-CSU-090]	HBV viral production from HepAD38 cells	< 1 µM
CN(C)CCN1[C@H](c2cccs2)C[C@H](C(=O)Nc2ccc(F)c(Cl)c2)N(C)S1(=O)=O [HBV-CSU-043-ISO-II]	HBV viral production from HepAD38 cells	> 5 µM
CN1[C@H](C(=O)Nc2ccc(F)c(Cl)c2)C[C@H](c2ccc(F)c(F)c2)NS1(=O)=O [HBV-CSU-230-ISO-I]	HBV viral production from HepAD38 cells	< 1 µM
[2H]C1[C@]([2H])(C(=O)Nc2ccc(F)c(Cl)c2)N(C)S(=O)(=O)N[C@]1([2H])c1ncc(-c2cn(C([2H])([2H])[2H])cn2)s1 (stereo in doubt) [HBV-CSU-341-ISO-II]	HBV viral production from HepAD38 cells	1 to 5 µM
CN1[C@@H](C(=O)Nc2ccc(F)c(Cl)c2)C[C@@H](c2ncc(-c3ccc(NS(C)(=O)=O)cc3)s2)NS1(=O)=O (relative stereo) [HBV-CSU-179]	HBV viral production from HepAD38 cells	< 1 µM
CN1[C@@H](C(=O)Nc2ccc(F)c(Cl)c2)C[C@@H](c2ccc(-c3cnco3)s2)NS1(=O)=O [HBV-CSU-269-ISO-II]	HBV viral production from HepAD38 cells	1 to 5 µM
CN1[C@@H](C(=O)Nc2ccc(F)c(Cl)c2)C[C@@H](c2cc(Cc3ccccc3)cs2)NS1(=O)=O [HBV-CSU-149-ISO-II]	HBV viral production from HepAD38 cells	1 to 5 µM
CN1C(C(=O)Nc2ccc(F)c(Cl)c2)CC(c2ncc(-c3ccccn3)s2)NS1(=O)=O (racemic) [HBV-CSU-176]	HBV viral production from HepAD38 cells	< 1 µM
CC(C)n1cc(-c2ccc([C@H]3C[C@@H](C(=O)Nc4ccc(F)c(Cl)c4)N(C)S(=O)(=O)N3)s2)cn1 [HBV-CSU-292-ISO-I]	HBV viral production from HepAD38 cells	< 1 µM
CN1C(C(=O)Nc2ccc(F)c(Cl)c2)CC(c2cc(-c3cncs3)cs2)NS1(=O)=O (racemic) [HBV-CSU-286]	HBV viral production from HepAD38 cells	< 1 µM
COCCN1C(C(=O)Nc2ccc(F)c(Cl)c2)CC(c2ccc(F)cc2)NS1(=O)=O (racemic) [HBV-CSU-210]	HBV viral production from HepAD38 cells	< 1 µM
Cc1csc(C2CC(C(=O)Nc3ccc(F)c(Cl)c3)N(C)S(=O)(=O)N2)c1 (racemic) [HBV-CSU-147]	HBV viral production from HepAD38 cells	< 1 µM
CN1[C@@H](C(=O)Nc2ccc(F)c(Cl)c2)C[C@@H](c2ccc(-c3ccc(C(F)(F)F)nc3)s2)NS1(=O)=O [HBV-CSU-158-ISO-II]	HBV viral production from HepAD38 cells	> 5 µM
CN1C(C(=O)Nc2ccc(F)c(Cl)c2)CC(c2ccc(F)c(F)c2)NS1(=O)=O (racemic) [HBV-CSU-230]	HBV viral production from HepAD38 cells	< 1 µM
CSCCN1[C@@H](C(=O)Nc2ccc(F)c(Cl)c2)C[C@@H](c2nccs2)NS1(=O)=O [HBV-CSU-109-ISO-I]	HBV viral production from HepAD38 cells	> 5 µM
CN1C(C(=O)Nc2ccc(F)c(Cl)c2)CC(c2ccc(Cl)cc2)NS1(=O)=O (stereo not drawn) [HBV-CSU-265]	HBV viral production from HepAD38 cells	< 1 µM
CN1[C@@H](C(=O)Nc2ccc(F)c(Cl)c2)C[C@@H](c2ccc(-c3cnn(C)c3)cc2)NS1(=O)=O (relative stereo) [HBV-CSU-246-ISO-I]	HBV viral production from HepAD38 cells	> 5 µM
[2H]C([2H])([2H])N1[C@H](C(=O)Nc2ccc(F)c(Cl)c2)C[C@H](c2ccc(Br)s2)NS1(=O)=O [HBV-CSU-370-ISO-I]	HBV viral production from HepAD38 cells	< 1 µM
CN1C(C(=O)Nc2cc(F)c(F)c(F)c2)CC(c2ccc(F)cc2)NS1(=O)=O (racemic) [HBV-CSU-212]	HBV viral production from HepAD38 cells	< 1 µM
CN1[C@@H](C(=O)Nc2ccc(F)c(Cl)c2)C[C@@H](c2ccc(-c3cnn(C)c3)s2)NS1(=O)=O [HBV-CSU-161-ISO-II]	HBV viral production from HepAD38 cells	1 to 5 µM
CN1C(C(=O)Nc2ccc(F)c(Br)c2)CC(c2cc(Br)cs2)NS1(=O)=O (racemic) [HBV-CSU-258]	HBV viral production from HepAD38 cells	< 1 µM
CN1[C@H](C(=O)Nc2ccc(F)c(Cl)c2)C[C@H](c2ccc(-c3ccc(NS(C)(=O)=O)cc3)s2)NS1(=O)=O [HBV-CSU-163-ISO-I]	HBV viral production from HepAD38 cells	< 1 µM
CN1C(C(=O)Nc2ccc(F)c(Cl)c2)CC(c2cc(-c3ccc(C#N)c(F)c3)cs2)NS1(=O)=O (racemic) [HBV-CSU-164]	HBV viral production from HepAD38 cells	< 1 µM
CN1C(C(=O)Nc2ccc(F)c(Cl)c2)CC(c2ccc(-c3cnn(C(F)(F)F)c3)s2)NS1(=O)=O (stereo not drawn) [HBV-CSU-321]	HBV viral production from HepAD38 cells	< 1 µM
CN1[C@H](C(=O)Nc2ccc(F)c(Cl)c2)C[C@H](c2ccc(C(=O)O)cc2)NS1(=O)=O [HBV-CSU-218-ISO-I]	HBV viral production from HepAD38 cells	> 5 µM
